Entries below carry reported pIC50 on Aurora1 (Aurora-B) (Homo sapiens, UniProt Q96GD4).
Sequence (Q96GD4 whole entry, species assumed): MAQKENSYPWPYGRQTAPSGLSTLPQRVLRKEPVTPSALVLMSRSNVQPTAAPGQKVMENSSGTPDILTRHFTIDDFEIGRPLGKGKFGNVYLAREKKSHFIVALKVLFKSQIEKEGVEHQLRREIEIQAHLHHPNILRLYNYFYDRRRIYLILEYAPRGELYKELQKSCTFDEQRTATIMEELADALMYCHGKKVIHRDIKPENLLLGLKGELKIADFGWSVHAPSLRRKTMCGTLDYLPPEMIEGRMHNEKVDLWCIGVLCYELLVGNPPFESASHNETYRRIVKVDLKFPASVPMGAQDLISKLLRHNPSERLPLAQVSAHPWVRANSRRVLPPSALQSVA
Sequence (Q9NQS7 821-918 partner limits assumed, species assumed): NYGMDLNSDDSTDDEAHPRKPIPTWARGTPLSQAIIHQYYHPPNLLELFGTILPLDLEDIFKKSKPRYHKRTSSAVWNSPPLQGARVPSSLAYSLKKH
pIC50: −log10 of the molar value. Where a name gives a salt, the structure may show the parent alone.
parameterMeasured: pIC50

Exercise: Request: pIC50, test system Aurora1 (Aurora-B) (Homo sapiens, UniProt Q96GD4), entry CCOC(=O)c1[nH]cc2c1NC1=C(C(=O)CNC1)C2c1ccc(Sc2nc3cc(F)c(Cl)cc3[nH]2)o1 (stereo not drawn) [Example 147, hydrochloride]
Key: 8.05

Exercise: So what pIC50 did CCOC(=O)c1[nH]cc2c1NC1=C(C(=O)CCC1)C2c1ccc(Sc2nc3cc(OC)ccc3[nH]2)o1 (stereo not drawn) get with Aurora1 (Aurora-B) (Homo sapiens, UniProt Q96GD4)?
Key: 8.10

I: CCOC(=O)c1[nH]cc2c1NC1=C(C(=O)CNC1)C2c1ccc(Sc2nc3cc4c(cc3[nH]2)OC(F)(F)O4)o1 (stereo not drawn) [Example 141, hydrochloride]
II: CCOC(=O)c1[nH]cc2c1NC1=C(C(=O)CCC1)C2c1ccc(Sc2nc3cccnc3[nH]2)o1 (stereo not drawn)
III: O=C1CCCC2=C1[C@H](c1ccc(Sc3nc4ccccc4[nH]3)o1)c1c[nH]nc1N2 (single isomer, unassigned) [120a (+)]
IV: CCOC(=O)c1[nH]cc2c1NC1=C(C(=O)CCCC1)C2c1ccc(Sc2nc3ccccc3[nH]2)o1 (stereo not drawn)
Exercise: Sort the compounds on pIC50; start with the lowest figure. Answer with the labels in sequence, matching the requested order.
Key: IV, I, II, III

The measurements presented in this section are drawn from patent US8163768B2.
